Hello, the source for this data is the nanobody polyreactivity screen of Harvey et al. (2022), in case you need it.

test: yeast display, Sf9 membrane polyspecificity reagent, FACS + sequencing; frameworks hold sequencing errors
MEASURED ENDPOINT: polyreactivity (PSR sort gate)

// known answers, use as guide
POLYMER SEQUENCE | RESULT
QVQLEESGGGLVQEGGSLRLICAASGSTFYVYARGWYRQAPGKERELVAAITGSTGSTYYADSVKGRFTISRDNAKNTVELQMNSLKTEVTAFYYCDADFYGVPIIYDYWRQGTQVTVSS | low polyreactivity
QVQLVESGGGLVQAGGSLRLSCAASGSIFASNAMGWYRQAPGKERELVAAITSSGRTKYADSVKGRFTISRDNAKNTVYFQMNSLKPEDTAVYYCAAVYYTYFGRYDYWGQGTQVTVSS | high polyreactivity
QGQLVESGGRLVQAGGSLRVSCAASGLTFNYYAMRWYRPAPGKERELVASISRSGGSTYYADSVKGRFTISRDNAKNTVYLQMNSLKPVDTAVYYCAAYRRRTYAVNKEGGYWGQGTQVTVSS | high polyreactivity
QVQLVESGGGLVQAGGSLRLSCADSGSIFDIYAMGWYRQAPGKERELVADISWSGGSTYYADSVKGRFTISRDNAKNTVYLQMNSLKPEDTAVYYCAADSSRRIGEDYWGQGTQVTVSS | low polyreactivity

Let's switch to this sequence now.
Q: Please report the recorded polyreactivity (PSR sort gate) for "QVQLVESGAGLVQAGGSLRLSCAASGGTLRYYAMGWYRPAPGKEREFVASISRSGGSTYYADSVKGRFTISRYNAKNTVYLQMNSLKPEDTAVYYCAAYWSPGYTTGRGYWGQGTQVTVSS" .
A: high polyreactivity

----------
assay: yeast display, Sf9 membrane polyspecificity reagent, FACS + sequencing; frameworks hold sequencing errors
MEASURED ENDPOINT: polyreactivity (PSR sort gate)

POLYMER SEQUENCE | MEASURED ENDPOINT | RESULT
QVQLVESGGGLVQAGGSLRLSCAASGSTFSYYAMGWYRKAPGKERELVAAITIGGRTNYADSVKGRFTISRDNAKNTVYFQMNSLKPEDTAVYYCAASRVRSLRSYVWDLLLMDSWGQGTQVTVSS | polyreactivity (PSR sort gate) | high polyreactivity
QVQLVESGGGLVQAGGSLRLSCAASGRISTFYAMGWYRQAPGKERELVAGIRWRGGSTYYADSVKGRFTISRDNAKNTVYLQMNSLKAEDTAVYYCYSMDYWGQGTQVTVSS | polyreactivity (PSR sort gate) | high polyreactivity

----------
assay: yeast display, Sf9 membrane polyspecificity reagent, FACS + sequencing; frameworks hold sequencing errors
MEASURED ENDPOINT: polyreactivity (PSR sort gate)

POLYMER SEQUENCE | RESULT
QVQLVESGGGLVQAGGSLRLSCAASGRIFVINAMGWYRQAPGKERELVAAISRRGANTYYADSVKGRFTISRDNAKNTVYLQMNSLKPEDTAVYYCNKVTVYRFRGDSWGQGTQVTVSS | high polyreactivity
QVQLVESGGGLVQAGGSLRLSCAASGRIFNKYTMGWYRQAPGKERELVAAIRGRGGSTYYADSVKGRFTISRDNAKNTVYLQMNSLKPEDTAVYYCAADSGPFYSKTPTRYGYWGQGTQVTVSS | high polyreactivity
QVQLVESGGGLVQAGGSLRLSCAASGRIFQYYAMGWYRPAPGKEREFVAAISDSGSNTYYADSVMGRFTISRDNAKNTVYLQMNSLKPEDTAVYYSAALYATRALFYYWGQGTQGTVSS | low polyreactivity
QVQIVESAAGIVQAGGSLRLSCAASGSIFLLYAIGWYRQAPGKEMEFVAAITRGGGSTYYADSVKGRFTISRDNEKNIDYLQINSLIPEDTAVYYWYKGFQYHNGSLVVAYDYWGQGTQVTVSS | low polyreactivity
QVQLVESGGGLVQAGGSLRLSSAASGSILPYYAMGWYRQAPGKESELVATITSRGGSTYYADSVKGRFTISRDNAKNTVYLQMNSLKPEDTAVYYCAKEYRYYRRRYDYCGQGTQVTVSS | high polyreactivity

Parameters: items (list). Returns: polyreactivity (PSR sort gate) for each item.
1. HGQLVESGGGLVHAGGSLRLSCAASGSTFAIYALGWYREAPGKERELVAGITGRGTSTYYADSVKGRFTISRDNAKNTVYLQMNSLKPEDTAVYYCNKVRYAFRYDYWGQGTQVTVSS
2. QVQLVESGGGLVQAGGSLRLSCAASGRTFYSNAMGWYRQAPGKERELVAAISSSGARTYYADSVKGRFTISRDNAKNTVYLQMNSLKPEDTAVYYCNAPTQYRYYWGQGTQVTVSS
3. QVQLVESGGGLVQAGGRLRLSCAASGRTFDRMLMGWYRQAPGKERELVAAITSGGRTNYADSVKGRFTISRDNAKNTVYLQMNSLKPEDTAVYYCAKRASALLRHSYDYWGQGTQVTVSS

A:
high polyreactivity
high polyreactivity
low polyreactivity

Report polyreactivity (PSR sort gate) for each item below.
1. QVQLVESGGGLVQAGGSLRLSCAASGSIFVNYAMGWFRQAPGKERELVAAITRSGGRTYYADSVKGRFTISRDNAKNTVYLQMNSLKPEDTAVYYCAARLGYAGNRDGSWGQGTQVTVSS
2. QVQLVESGGGLVQAGGSLRLSCAASGSTFDWYAMGWYRQAPGKERELVARIRWSGGSTYYADSVKGRFTISRDNAKNTVYLQMNSLKPEDTAVYYCAARTQTWPQYGYWGQGTQVTVSS
3. QVQLVESGGGLVQAGGSLRLSCAASGHIYVRYAMGWYRQAPGKERELVAAITSGGSTYYADSVKGRFTISRDNAKNTVYLQMNSLKPEDTAVYYCAARKQQYRFTHDYWGQGTQVTVSS

A:
high polyreactivity
high polyreactivity
high polyreactivity

----------
assay: yeast display, Sf9 membrane polyspecificity reagent, FACS + sequencing; frameworks hold sequencing errors

POLYMER SEQUENCE | polyreactivity (PSR sort gate)
QVQLLESGGGLVHAGGSLRLSCAASGSIFPYYAMGWYRQAPGKERELVAAISDSGDSTYYADSVKGRFTISRDNAKNTVYLQMNSLKPEDTAVYYCNADSRTDYHPHGTMVGPDREYWGQGTQVTVSS | low polyreactivity
QVQLVESGGGLDQAGGSIRLSCAASGFIYDGNAMGSYRQAPGKERELVAAISSGGGTTYYADSVKGRFTISRDNAKNTVYLQMNSLKPEDTAVYYCADDALSDEYDYWGQGTQVTVSS | low polyreactivity
QVQLVESGGGLVQAGGSLRLSCAASGSISGYNAMGWYRQAPGQERELVAAIYRSDGTDYADSVKGRFTISRDNAKNTVYLQMNSLNPEDTAVYYCNADKWSVVGYVRGFYRDDYWGQGTQVTVSS | low polyreactivity

----------
assay: yeast display, Sf9 membrane polyspecificity reagent, FACS + sequencing; frameworks hold sequencing errors

POLYMER SEQUENCE | polyreactivity (PSR sort gate)
QVQLVESGGGLVQAGGSLRLSCAASGFTFLDYALGWYIQAPGKERELVASISSSGGSTRYADSVKGRFTISRDNAKNTVYLQMNSLKPEDTAVYYCNAQIAEVPNDYWGQGPQVTVSS | low polyreactivity
QVQLVESGGGLVQAGGSLRLSCAASGRIFHIYAMGWYRPAPGKERELVAAIRSSGGSTYYADSVKGRFTISRDNAMNTVYLQMNSLKPEDTAVYYCNKYVAYDYWGQGTQVTVSS | low polyreactivity

----------
assay: yeast display, Sf9 membrane polyspecificity reagent, FACS + sequencing; frameworks hold sequencing errors
MEASURED ENDPOINT: polyreactivity (PSR sort gate)

In the examples that follow, each entry is paired with its recorded polyreactivity (PSR sort gate).
POLYMER SEQUENCE | polyreactivity (PSR sort gate)
QVQLVESGGGLVQAGGSLRLSCAASGSIFSQNAMGWYRQAPGKERELVAAITSSGGNTYADSVKGRFTISRDNAKNTVYLQMNRLKPEDTAVYYCAAGHLVILNRSEYYYWGQGSQVTVSS | low polyreactivity
QVQLVESGGGLVQAGGSLRLSCAASGFTFNFNAMGCYIQAPGKERELLAAIRYRGGSTNYADSVKGSFTISRDNAKNTVYVMMNSLKPEDTAVYYCNVYYYRTYSHVLPGYEYWGQGTQVPVSS | high polyreactivity
QVQLEESGGGLVQAGGSLRLSCAAYGSIFRFYAMGRYRQAPGKERQFVASITGTGGSTYYADSVKGRFTISRDNAKNTVYLQMNSLKPEDTAVYYCAKTQYSFPRLGYDYWGQGTQVTVSS | high polyreactivity
QVQLVESGGGLVQAGGSLRLSCAASGSIFGFYAKGWSRQAPGKEWELVAAITSGDSTHYADSVKGRFTISRDNAKNTVYLQMKSLKPEDTAVNYCAASAPYRYYRSAYSYWGLGTQVTVSS | low polyreactivity
QVQLVESGGGLVQAGGSLRLSCAASGRIFSYYAMGWYRQAPGKERELVAAISRSGVRTYYADSVKGRFTISRDNAKNTVYLQMNSLKAEDTAVYYCAASGKRFAYIKGRSRPAYGYDYWGQGTQVTVSS | high polyreactivity

Okay, here is my list. What is polyreactivity (PSR sort gate) for each of these?
1. QVQLVESGGGLVQAGGSLRLSCAASGSIFFIYAMGWYRQAPGTERELVATITSGGSTYYADSVKGRFTISRDNAKNTVYLQMNSLKPEDTAVYYCAVDEYYAFDYWGQGTQVTVSS
2. QVQLVESGGGIVQAGGSLRLSCAASGYTFAKYAMGWYRQEPGKERELVAAISSSGGRTYYADSVKGRFTISRDIAKNTVYLQMNSLKPEDTAVYYCNAYGQRDYWGQGSQVTVSS
3. QVQLVESGGGLVQAGGSLRLSCAASGFIFFINDMGWYRQAPGTERELVAAISWSGGSTYYADSVKGRFTISRDNAKNTVYLQMNSLKPEDTAVYYCNTDVPTAQYDYWGQGTQVTVSS

A:
["low polyreactivity", "high polyreactivity", "low polyreactivity"]

Count: 4. Required value per item: polyreactivity (PSR sort gate).
1. QVQLVESGGGLVQAGGSLRLSCAASGSIFRYYAMGWYRQAPGKERELVAGITGSTGRTYYADSVKGRFTISRDKAKNTVYLELNSLKPVDTEVYYCSARSRYYEYDYWGQGTQVTVTS
2. QVQLVESGGGLVQAGGSLRLSCAASGGIFYYYAMGWYRQAPGKERELVAAISWSGGSTYYADSVKGRFTISRDNAKNTVYLQMNSLKPDDTAVYYCATYSDFHYAQLEYDYWGQGTQVTVSS
3. QVQHVESGGGIVQAGGSLRLSCAASGSIFRNNTMGWYRQAPGKERELVAAISGRGTRTSYADSVKGRFTISRDNAKNTVYLQMNSLKPEDTAVYYCAARSWYLYYWGQGTQVTVSS
4. QVQLVESGGGLVQAGGSLRLSCAASGSIFSYYAMGWYRQAPGKERELVAAISWNGGRTYYADSVKGRFTISRDNAMNTVFLQMNSLKPEDTAVYYCNAVKVYSYGLYGYWGQGTQVTVSS

A:
1. low polyreactivity
2. low polyreactivity
3. low polyreactivity
4. high polyreactivity

Go through the items and report each one's polyreactivity (PSR sort gate).
1. HVQLVESGGGLVQAGGSLRLSCADSGRILYYYAMRWYIQEPGKERELVAAINSSGGSPYYADSVKGRFTISRDIAKNTVYLQMNSLKPEDTAVYYGAAEYQVQGYDYWGQGSQVTVSS
2. QVQLVESGGGLVQAGGSIRLSCAASGRIFWGNGMGWYRQAPGKEREFVAAISKSGGSTYYPDSVKGRFTISRDNAKNTVYLQMNSLKPEDTAVYYCAARAPYSYSGYGYWGQGTQVTVSS
3. QVQLVESGGGLVQAGGSLRLSCAASGSIFWRNMGWYRQAPGKERELVAAISYGSVSTYYADSVKGRFTISRDNAKNTVYLQMNSLKPEDTAVYYCAATLPGWYNEHDSWGLGTQVTVSS
4. QVQLVESGGGLVQAGGSLRLSCASSGSTWWYAMGWYRQAPGKEMELVATISYSGGSTYYADSVKGRFTISRDNAKNSVYLQMNSLKPEDTAVYYCAAKKWTAVRRDFWGQGTQVTVSS

A:
1. high polyreactivity
2. high polyreactivity
3. low polyreactivity
4. high polyreactivity

Give measured polyreactivity (PSR sort gate) for every item shown.
1. QVQLVESGGGLVQAGGSLRLSCAASGSIFDSNAMGWYRQAPGKERELVATISSVGSTNYADSVKGRFTISRDNAKNTVYLQMNSLKPEDTAVYYCARVVDAQGYYSAASGGYYWGQGTQVTVSS
2. QVQLVDSGGGLVQAGGSLRLSCSASGSTFSVYAMGWYRQAPGKERELVAAITSGGSTNYADSVKGRFTISRDNAKNTVYLQMNSLKPEDTAVFYCNAYYVLIGYQPHWGYYWGQGTQVTVSS

A:
["low polyreactivity", "low polyreactivity"]
